System: LOC_OS02G54510-cb004;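 note: purified Escherichia coli-expressed rice kinase domain construct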
assay-name: thermal shift delta Tm vs DMSO control; higher = stronger stabilization (binding)
measurement-conditions: 12.5 µM; protein concentration 2 µM
Where a name gives a salt, the structure may show the parent alone.
Assign T to entries whose thermal shift delta Tm meets or exceeds 0.4 °C; assign F to the rest.

Tell me whether thermal shift delta Tm is at least 0.4 °C here: `Cn1c(=O)c(F)c(Nc2ccc(I)cc2F)c2c(=O)n(C[C@@H](O)CO)cnc21` F

For this compound, is measured thermal shift delta Tm 0.4 °C or higher? CCN(CC)CCCC(C)Nc1nc(C)cc(Nc2ccc3nc(C)cc(N)c3c2)n1 (stereo not drawn) F

Item `COC1(c2sc3c(N4CCOCC4)nc(-c4cnc(N)nc4)nc3c2C)COC1` with thermal shift delta Tm of 0.4 °C or above? T

Given the entry `CCOC(=O)c1cnc2ccc(-c3cncc(NS(=O)(=O)c4ccccc4)c3)cn12` , answer whether its thermal shift delta Tm meets or surpasses 0.4 °C. F

Is the recorded value of thermal shift delta Tm equal to or greater than 0.4 °C for this compound? CNC(=O)c1cc(Oc2ccc(NC(=O)Nc3ccc(Cl)c(C(F)(F)F)c3)cc2)ccn1 [Sorafenib Tosylate] T

Can `CN1CCN(c2ccc(-c3ccncc3-c3cc(F)c(O)c(F)c3)cc2)CC1` be said to have thermal shift delta Tm at or above 0.4 °C? T

Check this compound for thermal shift delta Tm at or above 0.4 °C: `Cc1ccc(NC(=O)Nc2cc(C(F)(F)F)ccc2F)cc1Nc1ccc2c(c1)NC(=O)/C2=C\c1ccc[nH]1` F

Has CC(C)(C)c1cc(/C=C(\C#N)C(N)=S)cc(C(C)(C)C)c1O [Tyrphostin AG 879] a recorded thermal shift delta Tm greater than or equal to 0.4 °C? T

Identify whether the reported thermal shift delta Tm of the following compound is 0.4 °C or greater: `Cn1cc(-c2ccc3c(c2)CCN3C(=O)Cc2cccc(C(F)(F)F)c2)c2c(N)ncnc21` T

Has CN1CCC(CNc2ccc3ncc(-c4cccc(OC(F)(F)F)c4)n3n2)CC1 [SGI-1776 free base] a recorded thermal shift delta Tm greater than or equal to 0.4 °C? F

Determine whether measured thermal shift delta Tm meets or exceeds 0.4 °C for CC#CC(=O)N1CC[C@@H](n2c(=O)n(-c3ccc(Oc4ccccc4)cc3)c3c(N)ncnc32)C1 [ONO-4059 (GS-4059) hydrochloride] T

thermal shift delta Tm >= 0.4 °C for `Nc1nc(N)c2nc(-c3cccc(O)c3)c(-c3cccc(O)c3)nc2n1` ? F

Check if thermal shift delta Tm >= 0.4 °C (inclusive). Item: `Cc1cc2c(F)c(Oc3ncnn4cc(OC[C@@H](C)O)c(C)c34)ccc2[nH]1` F

Record `CC(C)Nc1cc(-c2c[nH]c(C(=O)N[C@H](CO)c3cccc(Cl)c3)c2)c(Cl)cn1` ; criterion: thermal shift delta Tm no lower than 0.4 °C. Met? F

Check if thermal shift delta Tm >= 0.4 °C (inclusive). Item: `CN(C)C/C=C/C(=O)Nc1ccc(C(=O)Nc2cccc(Nc3ncc(Cl)c(-c4c[nH]c5ccccc45)n3)c2)cc1` T

Answer whether thermal shift delta Tm of `C[C@H](CN(C)C)Oc1nc(Nc2cc3cccc(Cl)c3cn2)cnc1C#N` is greater than or equal to 0.4 °C. F

Check the entry `CCNC(=O)Nc1ccc(-c2nc3c(c(N4CCOC[C@@H]4C)n2)CCN(C2COC2)C3)cc1` : does thermal shift delta Tm equal or exceed 0.4 °C? F
